// data source = ChEMBL document CHEMBL4483862

Tested on: Plasmodium berghei
Procedure summary: Luciferase/luciferin-expressing antifolate-resistant parasites were used to infect a culture of HepG2 cells that were pre-incubated with compounds. Infected hepatocytes emit light due to the luciferase reaction. Assay results are presented as the percent inhibition of light emission compared to control. […]
Type: functional
Condition summary: sporozoite, PBLUC_HILL_SLOPE 16.7, PBLUC_R_SQUARED 0.489, read-out: LUCIFERASE INFECTION ASSAY - IC50
Endpoint label: pIC50
Scale note: pIC50 = -log10(concentration in M).

*Q* For the compound CCOC(=O)c1sc(N)c(C#N)c1CSc1nnc(Cc2cccc3ccccc23)n1C1CCCCC1 , give its reported pIC50.
*A* 5.06

----------
Tested on: Plasmodium berghei
Procedure summary: Luciferase/luciferin-expressing antifolate-resistant parasites were used to infect a culture of HepG2 cells that were pre-incubated with compounds. Infected hepatocytes emit light due to the luciferase reaction. Assay results are presented as the percent inhibition of light emission compared to control. […]
Format: functional
Condition summary: sporozoite, PBLUC_HILL_SLOPE 4.68, PBLUC_R_SQUARED 0.205, read-out: LUCIFERASE INFECTION ASSAY - IC50
Endpoint label: IC50 (µM)
Express your answer in µM, writing the number without its unit.

*Q* For the compound O=C(CSCc1cn(-c2ccccc2)nc1-c1ccccc1)NC1CCCC1 , give its reported IC50.
*A* 6.9

----------
System: Plasmodium berghei
Procedure summary: Luciferase/luciferin-expressing antifolate-resistant parasites were used to infect a culture of HepG2 cells that were pre-incubated with compounds. Infected hepatocytes emit light due to the luciferase reaction. Assay results are presented as the percent inhibition of light emission compared to control. […]
Type: functional
Condition summary: sporozoite, FFLUC_HILL_SLOPE 1.87, FFLUC_R_SQUARED 0.584, PBLUC_HILL_SLOPE 3.85, PBLUC_R_SQUARED 0.483, read-out: LUCIFERASE INFECTION ASSAY - IC50
Endpoint label: pIC50
Scale note: pIC50 = -log10(concentration in M).

*Q* Write down the reported pIC50 (system: Plasmodium berghei) of O=C(Nc1ccccc1N1CCOCC1)c1ccc2noc(-c3ccccc3)c2c1
*A* 5.10

----------
Test system: Plasmodium berghei
Procedure summary: Luciferase/luciferin-expressing antifolate-resistant parasites were used to infect a culture of HepG2 cells that were pre-incubated with compounds. Infected hepatocytes emit light due to the luciferase reaction. Assay results are presented as the percent inhibition of light emission compared to control. […]
Format: functional
Condition summary: sporozoite, PBLUC_HILL_SLOPE 9.77, PBLUC_R_SQUARED 0.255, read-out: LUCIFERASE INFECTION ASSAY - IC50
Endpoint label: IC50 (µM)
Express your answer in µM, writing the number without its unit.

*Q* For the compound O=C1OC(C=NC23CC4CC(CC(C4)C2)C3)c2ccccc21 (stereo unspecified) , give its reported IC50.
*A* 9.81

----------
System: Plasmodium berghei
Procedure summary: Luciferase/luciferin-expressing antifolate-resistant parasites were used to infect a culture of HepG2 cells that were pre-incubated with compounds. Infected hepatocytes emit light due to the luciferase reaction. Assay results are presented as the percent inhibition of light emission compared to control. […]
Format: functional
Condition summary: sporozoite, HEPG2TOX_HILL_SLOPE 17.4, HEPG2TOX_R_SQUARED 0.832, PBLUC_HILL_SLOPE 1.76, PBLUC_R_SQUARED 0.574, read-out: LUCIFERASE INFECTION ASSAY - IC50
Endpoint label: IC50 (µM)
Express your answer in µM, writing the number without its unit.

*Q* For the molecule C=CCn1c(COc2ccc(CC)cc2)nnc1SCC(=O)/C(C#N)=C(\C)N , give its reported IC50.
*A* 6.67
